Biological target: T1, Lsb1, P53281
T1 sequence (P53281 45-122, looked up): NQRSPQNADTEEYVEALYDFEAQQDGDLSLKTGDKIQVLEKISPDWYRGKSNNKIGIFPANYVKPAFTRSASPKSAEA
Experiment: SPOT array
Conditions: median of control spots 388
quantity_kind: SPOT intensity

binder: RSKRLFPVRPMATAH
numeric_value: 5
//
binder: FVLRYYILIPHEQWD
numeric_value: 2
//
binder: LKVTPGRRAPTISKI
numeric_value: 0
//
binder: FSRRQSMDIPSKNRN
numeric_value: 200
//
binder: DHPKGPPPPPPPDEK
numeric_value: 0
//
binder: NIKVLLNPKLGKPVK
numeric_value: 1
//
binder: RKRRTHLRLPLIRSN
numeric_value: 3
//
binder: ALKQKKIPPPFKPHL
numeric_value: 0
//
binder: FPPKRKPLLRPQRSD
numeric_value: 69
//
binder: RRRDFGAPANKRPRR
numeric_value: 0
//
binder: FFRRSELYLPNSSKA
numeric_value: 2
//
binder: SRYRRPLTLLLLKPF
numeric_value: 7
//
binder: GRLRPKRIAPWHLIQ
numeric_value: 0
//
binder: DRIRMFIRFPKFLLE
numeric_value: 4
//
binder: TSFKGRPKPPKTLKH
numeric_value: 0
